# Tested on: Rattus norvegicus
# experiment-summary: PCA activity of compound in rat at 100 mg/kg dose
# Format: functional
Item-by-item account of inhibition in vivo at 100 mg/kg
The figure you give is taken to be in %; do not add the unit.

These recorded examples may help you get a feel for the data.
COc1cc(NC(=O)COc2ccc(Cl)cc2)c(Cl)cc1C(=O)N1CCN(C(c2ccccc2)c2ccccc2)CC1
0
CCN(CC)CCNC(=O)c1cc(Cl)c(NC(=O)COc2ccc(I)cc2)cc1OC
0
COc1cc(NC(=O)COc2ccc(Cl)cc2)c(Cl)cc1C(=O)N1CCN(C/C=C/c2ccccc2)CC1
0

Prompt: For the compound CCN(CC)CCNC(=O)c1cc(Cl)c(N)cc1OC [METOCLOPRAMIDE] , give its reported inhibition in vivo at 100 mg/kg.
Response: 14

Prompt: Please report the measured inhibition in vivo at 100 mg/kg for CCN(CC)CCNC(=O)c1cc(Cl)c(NC(=O)COc2ccc(OC)cc2)cc1OC.Cl
Response: 53

Prompt: Supply measured inhibition in vivo at 100 mg/kg of CCN(CC)CCNC(=O)c1cc(Cl)c(NC(=O)C(C)Oc2ccc(Cl)cc2)cc1OC.Cl (centres undefined) in your reply.
Response: 62

Prompt: Identify inhibition in vivo at 100 mg/kg associated with the compound CCN(CC)CCNC(=O)c1cc(Cl)c(NC(=O)COc2cccc(C(F)(F)F)c2)cc1OC.Cl
Response: 53

Prompt: Consider the compound CCN(CC)CCNC(=O)c1cccc(NC(=O)COc2ccc(Cl)cc2)c1 and give its recorded inhibition in vivo at 100 mg/kg.
Response: 7

Prompt: Answer with reported inhibition in vivo at 100 mg/kg of CCN(CC)CCNC(=O)c1cc(Cl)ccc1NC(=O)COc1ccc(F)cc1
Response: 0
